- target or test system: Prostaglandin E2 receptor EP2 subtype (Rattus norvegicus)
- method summary: Inhibition of rat EP2 receptor expressed in HEK293 cells
pIC50: −log10 of the molar value.
Class definitions on pIC50: class A (below 6), class B (6 to below 7), class C (7 or more)

Exercise: Band for `CCCCCC(=O)c1ccc(CN(CCCCCCC(=O)O)S(C)(=O)=O)cc1` ?
Solution: class B

Exercise: What do you get for CCCCC(O)c1ccc(CN(CCCCCCC(=O)O)S(C)(=O)=O)cc1 (stereo not given) ?
Solution: class B

Exercise: And what about the compound `CC(C)(C)c1ccc(CN(Cc2cccc(CCC(=O)O)c2)S(=O)(=O)c2ccccn2)cc1` ?
Solution: class C

Exercise: Follow-up entry: `CC(C)(C)c1ccc(CN(Cc2cccc(CCC(=O)O)c2)S(C)(=O)=O)cc1`
Solution: class B

Exercise: Proceed to `CCCCc1ccc(CN(Cc2cccc(CCC(=O)O)c2)S(C)(=O)=O)cc1`
Solution: class B

Exercise: How about this compound: CC(C)CC(O)CCCN(CCCCCCC(=O)O)S(C)(=O)=O (stereo not given)
Solution: class A

Exercise: Then `CCCCc1ccc(CN(c2ccccc2CCCC(=O)O)S(C)(=O)=O)cc1` ?
Solution: class B

Exercise: // query: CCCCCC(O)CCCN(CCCCC(=O)O)S(C)(=O)=O (stereo not given)
Solution: class A

Exercise: # repeat for `CCCCc1ccc(CN(c2cccc(CCC(=O)O)c2)S(C)(=O)=O)cc1`
Solution: class A

Exercise: Now consider `CC(C)(C)c1ccc(CN(Cc2cccc(OCC(=O)O)c2)S(=O)(=O)c2cccnc2)cc1` and answer again.
Solution: class C

* * *

Task for the reader: assign each of the following molecules its reported log10 EC50.
- target or test system: Prostaglandin E2 receptor EP2 subtype (Rattus norvegicus)
- method summary: Agonist activity against rat EP2 receptor expressed in HEK293 cells assessed as stimulation of cAMP release
Values reflect log10 of reported EC50 (nM).

Exercise: I have this molecule here, `CC(C)(C)c1ccc(CN(Cc2cccc(OCC(=O)O)c2)S(C)(=O)=O)cc1` , and I need its recorded log10 EC50.
Solution: 2.31

Exercise: Next: `CCCCc1ccc(CN(CCCCCCC(=O)O)S(C)(=O)=O)cc1`
Solution: 1.97

Exercise: What do we get for `CC(C)(C)c1ccc(CN(Cc2cccc(CCC(=O)O)c2)S(C)(=O)=O)cc1` ?
Solution: 1.68

Exercise: Here is the next molecule: `CC(C)(C)c1ccc(CN(Cc2cccc(CCC(=O)O)c2)S(=O)(=O)c2nccs2)cc1`
Solution: 0.04

Exercise: Next up: `CC(C)(C)c1ccc(CN(Cc2cccc(CCC(=O)O)c2)S(=O)(=O)c2ccccc2)cc1`
Solution: -0.70

Exercise: Ok, now `CCCCc1ccc(CN(c2ccccc2CCCC(=O)O)S(C)(=O)=O)cc1`
Solution: 2.01

Exercise: Request: `CCCCc1ccc(CN(CCCCOCC(=O)O)S(C)(=O)=O)cc1`
Solution: 2.61

Exercise: // next record `CS(=O)(=O)N(CCCCCCC(=O)O)Cc1ccc(-c2ccccc2)cc1`
Solution: 2.66

Exercise: Same again, this time with `CC(C)(C)c1ccc(CN(Cc2cccc(CCC(=O)O)c2)S(=O)(=O)c2ccccn2)cc1`
Solution: 0.36

Exercise: Entry `CCCCc1ccc(CN(CCc2ccc(CC(=O)O)cc2)S(C)(=O)=O)cc1` please
Solution: 2.62

Exercise: Same question for CCCCCC(O)CCCN(CCCCCCC(=O)O)S(C)(=O)=O (configuration not stated) please.
Solution: 2.13

Exercise: Follow-up item: `CCCCc1ccc(CN(c2ccc(CCCC(=O)O)cc2)S(C)(=O)=O)cc1`
Solution: 2.77

Exercise: Same read-out for `CC(C)(C)c1ccc(CN(Cc2cccc(OCC(=O)O)c2)S(=O)(=O)c2cccnc2)cc1` ?
Solution: -0.52

Exercise: How about this molecule: `CCCCCC(=O)c1ccc(CN(CCCCCCC(=O)O)S(C)(=O)=O)cc1`
Solution: 2.95

Exercise: Can you check `CCCCc1ccc(CN(Cc2cccc(CCC(=O)O)c2)S(C)(=O)=O)cc1` next?
Solution: 1.54

Exercise: Repeat for the following molecule: CCCCC(O)c1ccc(CN(CCCCCCC(=O)O)S(C)(=O)=O)cc1 (configuration not stated)
Solution: 2.63

Exercise: Same question for CCCCCC(O)c1ccc(CN(CCCCCCC(=O)O)S(C)(=O)=O)cc1 (configuration not stated) please.
Solution: 1.64

* * *

- target or test system: Prostaglandin E2 receptor EP4 subtype (Rattus norvegicus, UniProt P43114)
- Sequence (P43114 whole entry): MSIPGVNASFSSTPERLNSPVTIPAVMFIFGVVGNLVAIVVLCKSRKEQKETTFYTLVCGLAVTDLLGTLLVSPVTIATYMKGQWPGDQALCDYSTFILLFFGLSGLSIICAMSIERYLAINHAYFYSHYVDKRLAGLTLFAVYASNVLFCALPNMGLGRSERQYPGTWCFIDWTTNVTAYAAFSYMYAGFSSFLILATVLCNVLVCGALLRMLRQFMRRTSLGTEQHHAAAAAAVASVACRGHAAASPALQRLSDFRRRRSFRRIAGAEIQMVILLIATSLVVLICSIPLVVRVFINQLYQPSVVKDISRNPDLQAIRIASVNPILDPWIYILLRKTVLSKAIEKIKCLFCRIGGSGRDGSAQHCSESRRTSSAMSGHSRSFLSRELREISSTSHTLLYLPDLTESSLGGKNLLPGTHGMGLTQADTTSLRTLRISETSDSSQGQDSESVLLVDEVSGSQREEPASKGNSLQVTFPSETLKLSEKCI
- method summary: Inhibition of rat EP4 receptor expressed in HEK293 cells
pIC50: −log10 of the molar value.
readout kind: pIC50

Exercise: Param item = `CC(C)(C)c1ccc(CN(Cc2cccc(OCC(=O)O)c2)S(=O)(=O)c2cccnc2)cc1` ; retrieve measured pIC50.
Solution: < 5.49

Exercise: How about `CCCCc1ccc(CN(Cc2cccc(CCC(=O)O)c2)S(C)(=O)=O)cc1` ?
Solution: < 5.49

Exercise: Field entry: `CCCCc1ccc(CN(CCc2ccc(CC(=O)O)cc2)S(C)(=O)=O)cc1`
Solution: < 5.49

* * *

- target or test system: Prostaglandin E2 receptor EP2 subtype (Rattus norvegicus)
- method summary: Inhibition of rat EP2 receptor expressed in HEK293 cells
In plain terms, low IC50, meaning strictly below 300 nM, gives condition met, and everything else gives condition not met.

Exercise: Field: below-cutoff. Rule: recorded IC50 strictly less than 300 nM. Subject: `CCCCc1ccc(CN(CCCOc2cccc(C(=O)O)c2)S(C)(=O)=O)cc1`
Solution: condition not met

Exercise: Another compound: `CC(C)(C)c1ccc(CN(Cc2cccc(OCC(=O)O)c2)S(C)(=O)=O)cc1`
Solution: condition not met

Exercise: Same thing, different compound: `CCCCc1ccc(CN(CCCCOCC(=O)O)S(C)(=O)=O)cc1`
Solution: condition not met

Exercise: Also `CCCCc1ccc(CN(CCCCCCC(=O)O)S(C)(=O)=O)cc1` , if possible.
Solution: condition met

Exercise: And `CC(C)(C)c1ccc(CN(CCCCCCC(=O)O)S(C)(=O)=O)cc1` ?
Solution: condition not met

Exercise: Next entry: `CC(C)(C)c1ccc(CN(Cc2cccc(CCC(=O)O)c2)S(=O)(=O)c2ccccc2)cc1`
Solution: condition met

Exercise: Try this compound too: `CC(C)(C)c1ccc(CN(Cc2cccc(CCC(=O)O)c2)S(=O)(=O)c2ccc(Cl)cc2)cc1`
Solution: condition not met

Exercise: Can you handle `CCCCc1ccc(CN(Cc2ccccc2OCC(=O)O)S(C)(=O)=O)cc1` next?
Solution: condition not met

Exercise: Continue with `CS(=O)(=O)N(CCCCCCC(=O)O)Cc1ccc(-c2ccccc2)cc1`
Solution: condition met

Exercise: Same question, CCCCCC(O)CCCN(CCCCCCC(=O)O)S(C)(=O)=O (stereo not given) this time
Solution: condition met

* * *

- target or test system: Prostaglandin E2 receptor EP4 subtype (Rattus norvegicus, UniProt P43114)
- method summary: Agonist activity against rat EP4 receptor expressed in HEK293 cells assessed as stimulation of cAMP release
readout kind: pEC50
A value of pEC50 is the negative decimal logarithm of a concentration given in moles per litre.

Exercise: Could you tell me which pEC50 is on file for `CCCCC[C@H](O)/C=C/[C@H]1[C@H](O)CC(=O)[C@@H]1C/C=C\CCCC(=O)O` ?
Solution: 9.15

* * *

- method summary: Clearance in Sprague-Dawley rat at 1 mg/kg, iv
- Type: ADME, organism-based
- Set-up: dose 1 mg/kg, route intravenous
- experimental context: in vivo
readout kind: clearance (mL/min/kg)
Form entry: value (mL/min/kg) — number only.

Exercise: Return reported clearance; argument: `CC(C)(C)c1ccc(CN(Cc2cccc(OCC(=O)O)c2)S(=O)(=O)c2cccnc2)cc1`
Solution: 56

* * *

I'd appreciate it if you could supply pIC50 values for the items below.
- target or test system: Prostaglandin E2 receptor EP2 subtype (Rattus norvegicus, UniProt Q62928)
- Sequence (Q62928 whole entry): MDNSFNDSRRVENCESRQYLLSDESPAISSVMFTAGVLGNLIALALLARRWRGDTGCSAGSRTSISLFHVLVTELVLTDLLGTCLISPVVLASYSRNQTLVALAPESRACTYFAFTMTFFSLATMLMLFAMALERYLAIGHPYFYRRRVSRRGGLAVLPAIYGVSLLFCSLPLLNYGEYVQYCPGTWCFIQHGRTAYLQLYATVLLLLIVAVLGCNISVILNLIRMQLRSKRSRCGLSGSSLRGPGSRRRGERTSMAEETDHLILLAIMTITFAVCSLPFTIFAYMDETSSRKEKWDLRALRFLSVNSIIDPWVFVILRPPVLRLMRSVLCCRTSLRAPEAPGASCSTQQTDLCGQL
- method summary: Inhibition of rat EP2 receptor expressed in HEK293 cells
Just so you know, pIC50 here is -log10 of the concentration in molar units; reply with that number alone.

Exercise: Requested field: pIC50. Item: CCCCCC(O)c1ccc(CN(CCCCCCC(=O)O)S(C)(=O)=O)cc1 (stereo not given)
Solution: 7.03

Exercise: One more compound: CCCCCC(O)CCCN(CCCCCC(=O)O)S(C)(=O)=O (stereo not given)
Solution: 6.04

Exercise: Also `CCCCc1ccc(CN(c2ccc(CCCC(=O)O)cc2)S(C)(=O)=O)cc1` , if possible.
Solution: 6.18

Exercise: Same thing, different compound: `CC(C)(C)c1ccc(CN(Cc2cccc(CCC(=O)O)c2)S(=O)(=O)c2nccs2)cc1`
Solution: 7.20

Exercise: // repeat for `CCCCc1ccc(CN(CCc2ccc(CC(=O)O)cc2)S(C)(=O)=O)cc1` and report
Solution: 6.08
